B1: ATL3 (parent)
chain: HFKKTKKMGGKDFSFRYQQELEEE

# Variants of: B1
# PROCEDURE TEXT: protein stability index of a GFP-peptide fusion (GPS, HEK-293T) (PSI 1-6); higher = more stable;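 further: lentivirally expressed fusions sorted by FACS into six bins by GFP to DsRed ratio, PSI derived from sequencing read proportions per bin multiplied by bin number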
# RUN CONDITIONS: c terminus: a fixed tail appended
PARAMETER: protein stability index
Give bare numbers.

# MUTATION ID, protein stability index
rows = [
    ("F13M", 3.76),
]

Quick one: give me protein stability index for each item below, same order please.
1. K3S
2. D12T
3. G9L

1.79
2.24
2.26

List the reported protein stability index of each variant below.
1. S14T
2. F13R
3. F13E
4. F2A
5. G10A
6. K3P
7. G10T
8. S14K

1. 3.24
2. 3.94
3. 5.36
4. 1.48
5. 1.75
6. 1.9
7. 1.61
8. 3.31

Below is a list of variants. For each, state its recorded protein stability index.
1. H1V
2. L21H
3. E22C
4. H1T
5. Y17S
6. E23Y

2.26
2.44
3.15
3.89
3.14
1.71

For each of the variants below, note its protein stability index.
1. F13Y
2. E22H

[2.75, 2.83]

Okay, here is my list. What is protein stability index for each of these?
1. E24K
2. Q18A
3. D12R

1. 3.43
2. 2
3. 1.96

List protein stability index for every entry below, keeping the order given.
1. K7L
2. L21K
3. M8I
4. E20Q
5. K6V

2.1
3.3
1.96
2.91
2.46

Go through the items and report each one's protein stability index.
1. M8L
2. G9N
3. L21T
4. E24P
5. E24M
6. M8E
7. D12V
8. K6F

[1.48, 1.99, 4.24, 3.69, 1.81, 2.72, 2.7, 3.58]

Items follow; give protein stability index for each.
1. G9M
2. H1W
3. E20I
4. G10W

[1.28, 2.22, 3.47, 1.7]
